# system_name: CDK7/Cyclin H/MNAT1 (Homo sapiens)
# Construct: purchased Invitrogen PR6749B
# Sequence (P50613 whole entry): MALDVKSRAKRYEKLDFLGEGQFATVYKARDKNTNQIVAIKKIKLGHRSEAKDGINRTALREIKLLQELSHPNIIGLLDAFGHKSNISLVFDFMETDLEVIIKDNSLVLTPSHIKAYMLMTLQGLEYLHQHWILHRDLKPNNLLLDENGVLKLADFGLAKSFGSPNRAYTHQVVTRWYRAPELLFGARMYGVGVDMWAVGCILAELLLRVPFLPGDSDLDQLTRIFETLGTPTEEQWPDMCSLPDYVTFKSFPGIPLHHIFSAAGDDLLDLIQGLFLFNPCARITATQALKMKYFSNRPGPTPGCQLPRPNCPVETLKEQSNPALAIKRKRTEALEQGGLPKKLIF
# Sequence (P51946 whole entry partner): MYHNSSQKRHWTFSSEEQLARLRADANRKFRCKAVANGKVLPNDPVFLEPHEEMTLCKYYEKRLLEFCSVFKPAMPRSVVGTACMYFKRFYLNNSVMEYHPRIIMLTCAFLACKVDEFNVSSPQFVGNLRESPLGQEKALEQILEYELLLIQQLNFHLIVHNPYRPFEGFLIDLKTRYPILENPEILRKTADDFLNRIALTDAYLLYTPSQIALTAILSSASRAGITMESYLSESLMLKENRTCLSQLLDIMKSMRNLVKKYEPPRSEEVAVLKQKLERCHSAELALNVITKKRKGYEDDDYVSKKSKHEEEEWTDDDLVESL
# Sequence (P51948 whole entry partner): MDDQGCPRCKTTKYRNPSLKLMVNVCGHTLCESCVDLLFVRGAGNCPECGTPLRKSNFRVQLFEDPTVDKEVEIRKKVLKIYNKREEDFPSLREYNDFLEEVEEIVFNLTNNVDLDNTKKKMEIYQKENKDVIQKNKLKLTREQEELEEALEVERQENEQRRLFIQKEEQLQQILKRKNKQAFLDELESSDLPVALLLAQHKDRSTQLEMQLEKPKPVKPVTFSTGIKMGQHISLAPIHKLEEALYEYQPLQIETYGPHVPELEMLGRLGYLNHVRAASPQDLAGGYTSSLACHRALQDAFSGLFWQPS
# assay_overview: Enzymatic assay for CDK7 (FRET based LANCE Ultra kinase assay)
# Assay type: biochemical
# recorded_conditions: read-out: CDK7 enzymatic activity (IC50 range)
pIC50: −log10 of the molar value.
# pIC50 per record follows

IN: Return the recorded pIC50 value; entry: Cc1ccc(-c2cc3ccccc3[nH]2)c(CNc2nc(N3CCC(N)CC3)nc3c(C(C)C)cnn23)c1
OUT: > 7.00

IN: Return the recorded pIC50 value; entry: CC(C)c1cnn2c(NCc3ccccc3-c3cc4cccc(NC(=O)C5CC5)c4[nH]3)nc(N3CCC(N)CC3)nc12
OUT: > 7.00

IN: Return the recorded pIC50 value; entry: CC(C)c1cnn2c(NCc3cccc4cccnc34)nc(N3CCC(N)CC3)nc12
OUT: > 7.00

IN: Return the recorded pIC50 value; entry: N#Cc1cnn2c(NCc3ccccc3-n3cccn3)nc(N3CCC(N)CC3)nc12
OUT: > 7.00

IN: Return the recorded pIC50 value; entry: CC(C)c1cnn2c(NCc3ccccc3-c3ccc4ccccc4[n+]3[O-])nc(N3CCC(N)CC3)nc12
OUT: > 7.00
